- PROTOCOL: self-splicing fitness, log relative to wild type (ln ratio); higher = more splicing; Tetrahymena group I intron in knt gene, E. coli kanamycin selection, DiMSum; sequences stand for … in CUCUCU…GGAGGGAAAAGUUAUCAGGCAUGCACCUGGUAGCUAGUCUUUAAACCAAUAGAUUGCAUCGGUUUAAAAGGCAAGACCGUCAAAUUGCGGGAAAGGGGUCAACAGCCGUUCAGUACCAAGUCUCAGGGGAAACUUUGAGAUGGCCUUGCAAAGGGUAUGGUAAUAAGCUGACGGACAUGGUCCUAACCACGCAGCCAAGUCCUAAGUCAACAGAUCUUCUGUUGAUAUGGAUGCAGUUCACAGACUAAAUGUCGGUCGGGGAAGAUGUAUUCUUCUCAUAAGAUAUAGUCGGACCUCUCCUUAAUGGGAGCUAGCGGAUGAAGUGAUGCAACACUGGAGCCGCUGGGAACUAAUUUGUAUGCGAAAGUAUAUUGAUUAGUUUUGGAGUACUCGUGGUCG;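 further: selection with 25 µg/mL kanamycin versus none on LB agar overnight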
- PROTOCOL CONDITIONS: 37 °C
Each entry below carries its reported self-splicing fitness (ln).
Form: value (number only, do not type unit).

Some solved entries appear below for comparison.
INSERT INTO measurements (sequence, observed) VALUES
  ('UACGAGCAAUAUUACGUCGA', -1.45),
  ('AGUAAGCAAUAUUACGGGCA', -0.468);

**Q:** Recorded self-splicing fitness (ln) for CGGCAGCAAUAUUACGCGUA , please?
**A:** -0.576

**Q:** Next up: AGACAGCAAUAUUACGAGUC
**A:** -2.52

**Q:** Note, next up: GUGCAGCAAUAUUACGGCUA
**A:** 0.17

---

- PROTOCOL: self-splicing fitness, log relative to wild type (ln ratio); higher = more splicing; Tetrahymena group I intron in knt gene, E. coli kanamycin selection, DiMSum; sequences stand for … in CUCUCU…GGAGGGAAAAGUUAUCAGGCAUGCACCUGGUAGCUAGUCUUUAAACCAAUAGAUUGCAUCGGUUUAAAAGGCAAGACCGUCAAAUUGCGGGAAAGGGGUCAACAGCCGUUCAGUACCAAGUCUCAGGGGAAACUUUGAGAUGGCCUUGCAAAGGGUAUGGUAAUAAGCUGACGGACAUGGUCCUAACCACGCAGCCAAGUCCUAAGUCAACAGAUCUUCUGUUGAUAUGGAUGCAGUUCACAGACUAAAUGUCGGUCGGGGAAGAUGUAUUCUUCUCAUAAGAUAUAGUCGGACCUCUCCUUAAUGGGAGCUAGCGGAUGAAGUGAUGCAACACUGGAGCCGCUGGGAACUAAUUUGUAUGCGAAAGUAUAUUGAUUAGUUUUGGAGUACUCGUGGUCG
- PROTOCOL CONDITIONS: 37 °C
METRIC: self-splicing fitness (ln)
Respond numerically, and do not add a unit to the figure.

Consider the reported self-splicing fitness (ln) for these sequences:
INSERT INTO measurements (sequence, metric, observed) VALUES
  ('GUCCAGCAAUAUUACGCCAA', 'self-splicing fitness (ln)', -2.72),
  ('UCGGAGCAAUAUUACGUAGG', 'self-splicing fitness (ln)', -0.619),
  ('UCUUAGCAAUAUUACGGAGG', 'self-splicing fitness (ln)', -2.17);

**Q:** What does the data say about its self-splicing fitness (ln)? Entry: AGCGAGCAAUAUUACGGAAU
**A:** -2.66

**Q:** Another sequence: GACCAGCAAUAUUACGUUGA
**A:** -0.203

**Q:** Follow-up item: GCGAAGCAAUAUUACGUAUA
**A:** 0.188

**Q:** Consider next the sequence UGCGAGCAAUAUUACGAUGU in the same way.
**A:** -2.97

**Q:** Check GGUAAGCAAUAUUACGGCUU too.
**A:** 0.352

**Q:** Now the same for GCCUAGCAAUAUUACGCUUC
**A:** -0.334

**Q:** And then AUGAAGCAAUAUUACGAUAA , what is it?
**A:** -0.287

**Q:** Now the sequence CUGGAGCAAUAUUACGGGAC
**A:** -1.08

**Q:** Do the same for CAAAAGCAAUAUUACGAAGG please
**A:** -0.758

---

Listed below: self-splicing fitness (ln) values for each entry.
- PROTOCOL: self-splicing fitness, log relative to wild type (ln ratio); higher = more splicing; Tetrahymena group I intron in knt gene, E. coli kanamycin selection, DiMSum; sequences stand for … in CUCUCU…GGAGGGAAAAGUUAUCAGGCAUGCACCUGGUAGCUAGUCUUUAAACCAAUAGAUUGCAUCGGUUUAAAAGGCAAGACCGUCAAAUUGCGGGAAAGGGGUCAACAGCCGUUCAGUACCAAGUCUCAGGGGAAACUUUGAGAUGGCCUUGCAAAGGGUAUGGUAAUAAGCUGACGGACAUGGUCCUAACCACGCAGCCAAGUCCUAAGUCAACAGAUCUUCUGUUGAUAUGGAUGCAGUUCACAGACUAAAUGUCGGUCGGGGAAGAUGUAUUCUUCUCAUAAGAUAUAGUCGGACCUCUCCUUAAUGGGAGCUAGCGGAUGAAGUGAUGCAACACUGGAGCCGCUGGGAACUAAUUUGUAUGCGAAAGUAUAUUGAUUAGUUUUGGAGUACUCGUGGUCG
- PROTOCOL CONDITIONS: 30 °C
A bare number is all that is needed in reply.

INSERT INTO results (sequence, observed) VALUES
  ('UGAAAGCAAUAUUACGUCGA', -0.893),
  ('CGGCAGCAAUAUUACGAAGG', -1.13),
  ('GUAAAGCAAUAUUACGGAGA', -3.54),
  ('AGCCAGCAAUAUUACGACUU', -1.6),
  ('UGCAAGCAAUAUUACGCCGG', -2.06);

**Q:** Requested field: self-splicing fitness (ln). Item: AUAGAGCAAUAUUACGUACC
**A:** -3.3

**Q:** Then what about the sequence GGUUAGCAAUAUUACGACAU ?
**A:** 0.0748

---

- PROTOCOL: self-splicing fitness, log relative to wild type (ln ratio); higher = more splicing; Tetrahymena group I intron in knt gene, E. coli kanamycin selection, DiMSum; sequences stand for … in CUCUCU…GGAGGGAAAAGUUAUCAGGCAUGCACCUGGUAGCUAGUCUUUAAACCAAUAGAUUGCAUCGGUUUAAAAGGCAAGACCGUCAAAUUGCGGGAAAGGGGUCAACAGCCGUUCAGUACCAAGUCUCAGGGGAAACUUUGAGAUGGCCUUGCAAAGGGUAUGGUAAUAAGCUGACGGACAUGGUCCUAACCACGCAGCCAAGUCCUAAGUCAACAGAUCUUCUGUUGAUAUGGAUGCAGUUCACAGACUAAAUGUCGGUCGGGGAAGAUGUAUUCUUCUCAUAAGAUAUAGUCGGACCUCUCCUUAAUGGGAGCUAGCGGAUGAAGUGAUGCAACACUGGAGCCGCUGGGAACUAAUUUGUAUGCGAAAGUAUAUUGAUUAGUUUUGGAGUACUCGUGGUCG
- PROTOCOL CONDITIONS: 37 °C
METRIC: self-splicing fitness (ln)
Simply state the number, no unit and no words.

Worked cases, answers included:
INSERT INTO results (sequence, observed) VALUES
  ('UUUUAGCAAUAUUACGCGCG', -0.122),
  ('AUUAAGCAAUAUUACGCUAC', -3.4),
  ('GGGAAGCAAUAUUACGGGGA', -2.65),
  ('CCACAGCAAUAUUACGUGCA', -2.5),
  ('AUCGAGCAAUAUUACGGCUC', -1.56);

**Q:** Look up self-splicing fitness (ln): UCUUAGCAAUAUUACGAGCA
**A:** -0.00766

**Q:** Likewise for CGAGAGCAAUAUUACGUCGU ?
**A:** -3.09

**Q:** How about UAGAAGCAAUAUUACGAGAG ?
**A:** -1.46

**Q:** // next record GAAGAGCAAUAUUACGGGAU
**A:** -3.16

---

- PROTOCOL: self-splicing fitness, log relative to wild type (ln ratio); higher = more splicing; Tetrahymena group I intron in knt gene, E. coli kanamycin selection, DiMSum; sequences stand for … in CUCUCU…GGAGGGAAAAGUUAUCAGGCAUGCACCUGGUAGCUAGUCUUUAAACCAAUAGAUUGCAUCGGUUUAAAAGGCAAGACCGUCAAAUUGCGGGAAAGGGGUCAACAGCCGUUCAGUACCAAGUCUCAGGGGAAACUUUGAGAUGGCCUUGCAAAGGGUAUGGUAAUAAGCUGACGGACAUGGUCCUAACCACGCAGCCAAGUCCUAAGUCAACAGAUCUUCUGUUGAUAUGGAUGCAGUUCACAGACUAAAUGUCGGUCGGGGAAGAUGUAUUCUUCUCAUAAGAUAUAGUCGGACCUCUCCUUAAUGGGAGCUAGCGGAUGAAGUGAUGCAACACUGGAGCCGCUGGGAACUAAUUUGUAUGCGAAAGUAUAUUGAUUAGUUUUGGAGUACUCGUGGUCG
- PROTOCOL CONDITIONS: 30 °C
Below: a set of entries, each annotated with reported self-splicing fitness (ln).
Give a plain numeric answer without units written out.

INSERT INTO assay_data (sequence, metric, observed) VALUES
  ('CAGAAGCAAUAUUACGGCCA', 'self-splicing fitness (ln)', -1.5),
  ('GUGCAGCAAUAUUACGUCCU', 'self-splicing fitness (ln)', -0.637);

**Q:** Given GUCUAGCAAUAUUACGGGAA , state its recorded self-splicing fitness (ln).
**A:** -1.24

**Q:** How about this sequence: AGGGAGCAAUAUUACGCGCA
**A:** -1.71

**Q:** ACUGAGCAAUAUUACGACGA , same question.
**A:** -1.3

**Q:** Please give the result for GGAAAGCAAUAUUACGAAAG too.
**A:** -4.01

**Q:** Follow-up entry: CUAAAGCAAUAUUACGCUCU
**A:** -2.94

**Q:** Also, CUCGAGCAAUAUUACGAGUG please.
**A:** -1.7

**Q:** Next record, please: UGCUAGCAAUAUUACGAGUC
**A:** -3.43

**Q:** Follow-up item: CUUCAGCAAUAUUACGCCAG
**A:** -0.975

**Q:** Now try AGGAAGCAAUAUUACGAACG .
**A:** -1.19

**Q:** And for UUUGAGCAAUAUUACGAUUU ?
**A:** -3.28

**Q:** Now consider GCUCAGCAAUAUUACGCUCU .
**A:** -1.09

**Q:** Here is the next sequence: GGCCAGCAAUAUUACGUACC
**A:** -0.685

**Q:** Also check CCGCAGCAAUAUUACGGGUC
**A:** -3.86

**Q:** Could you do the same for GUGAAGCAAUAUUACGUAAU , please?
**A:** -1.19
